- test-system: MAGE-A11:PCF11 (Homo sapiens (Human), UniProt P43364)
- Sequence (P43364 218-429): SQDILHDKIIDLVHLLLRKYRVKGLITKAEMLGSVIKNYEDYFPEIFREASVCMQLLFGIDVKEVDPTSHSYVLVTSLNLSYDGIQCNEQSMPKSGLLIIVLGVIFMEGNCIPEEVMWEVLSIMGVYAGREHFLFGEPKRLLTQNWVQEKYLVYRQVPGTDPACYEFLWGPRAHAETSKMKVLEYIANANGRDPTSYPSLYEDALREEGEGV
- test: TR-FRET single point screening at 15 μM
- Type: binding
- Set-up: unit not given here
- condition: single point TR-FRET screening at 15 μM against MAGE-A11:PCF11
parameter: TR-FRET signal
Please give only the number in your answer, with no unit.

In: Please list TR-FRET signal recorded for the molecule `O=S(=O)(c1ccccc1)c1cnc2ccc(Cl)cc2c1N1CCN(c2ccccc2F)CC1`
Out: −5.441

In: Look up TR-FRET signal of `Clc1ccc2c(NCCCCN(Cc3ccccc3)Cc3ccncc3)ccnc2c1` and report it.
Out: −9.945

In: Retrieve TR-FRET signal measured for `COc1ccc2nc3cc(Cl)ccc3c(NCCCNCc3ccccc3)c2c1` and print it.
Out: −432.4

In: Read the entry `COc1ccc(F)c(CN(CCCCNc2ccnc3cc(Cl)ccc23)Cc2ccccc2)c1` and write its reported TR-FRET signal.
Out: 14.55

In: # return recorded TR-FRET signal for input `CCCCCCN(CCC)CCCNc1c2ccc(Cl)cc2nc2ccc(OC)cc12`
Out: −153.7

In: Supply TR-FRET signal value. Item: `CCN(CC)CC(=O)Nc1c2c(nc3ccccc13)N(C)CC2`
Out: 11.78

In: Given the molecule `CCOC(=O)c1cnc2c(C)c(Cl)ccc2c1NCCN(C)C` , write its reported TR-FRET signal.
Out: −1.333

In: Determine its reported TR-FRET signal: `CCc1ccc2ncc(S(=O)(=O)c3ccc(Cl)cc3)c(N3CCN(CC)CC3)c2c1`
Out: −19.13

* * *

- test-system: MAGE-A11:PCF11 (Homo sapiens (Human))
- test: TR-FRET single point screening at 15 μM
- Assay type: binding
- Design: unit not given here
- condition: single point TR-FRET screening of quinoline compounds against MAGE-A11:PCF11; 15 μM
Decision: TR-FRET signal compared against 20; not below it gives y, below it gives n.

In: TR-FRET signal >= 20 for `CCCN(CCCNc1ccnc2cc(Cl)ccc12)Cc1ccccc1C(F)(F)F` ?
Out: n

In: Does TR-FRET signal meet or surpass 20 for `Clc1ccc2c(NCCCN(Cc3ccccc3)Cc3cc4ccccc4o3)ccnc2c1` ?
Out: n

In: Form field: TR-FRET signal at least 20? Entry: `Fc1ccc(CN(CCCNc2ccnc3cc(Cl)ccc23)Cc2ccccc2)cc1`
Out: n

In: For this compound, is measured TR-FRET signal 20 or higher? `CCCN(CCCNc1ccnc2cc(Cl)ccc12)Cc1ccc(CC)cc1`
Out: y

In: Given `CCCN(CCCNc1ccnc2cc(C(F)(F)F)ccc12)Cc1ccccn1` , state whether its TR-FRET signal is at least 20.
Out: n

* * *

- test-system: MAGE-A11:PCF11 (Homo sapiens (Human), UniProt P43364)
- test: TR-FRET single point screening at 15 μM
- Assay type: binding
- Parameters: unit not given here
- condition: single point TR-FRET screening at 15 μM against MAGE-A11:PCF11
parameter: TR-FRET signal
Write no unit; give the number alone.

In: Indicate its recorded TR-FRET signal; the compound in question is `CCCN(CCCNc1c2ccc(Cl)cc2nc2ccc(OC)cc12)CCCc1ccccc1`
Out: −267.2

In: Identify measured TR-FRET signal corresponding to `CN(C)c1cc(NC(=O)CNC(C)(C)CC(C)(C)C)c2ccccc2n1`
Out: 10.62

In: Please look at this compound and report its TR-FRET signal: `COc1ccc2nc3cc(Cl)ccc3c(NCCCNCC3CC3)c2c1`
Out: −502.4

In: Complete the entry with TR-FRET signal for `CCOc1ccc2ncc(S(=O)(=O)c3ccc(C)cc3)c(N3CCN(CC)CC3)c2c1`
Out: −5.899

Provenance of the data: patent US20240246941A1
